measuredOn: M. tuberculosis RNA polymerase (Mycobacterium tuberculosis (strain ATCC 25618 / H37Rv), UniProt P9WGY7+P9WGY9)
methodDescription: Fluorescence-detected assay of inhibition of Mycobacterium tuberculosis RNA polymerase
conditionSet: read-out: RNAP-inhibitory activity M. tuberculosis RNAP IC50
Experimental: Fluorescence-detected RNA polymerase assays with E. coli RNA polymerase were performed by a modification of the procedure of Kuhlman et al., 2004 [Kuhlman, P., Duff, H. & Galant, A. (2004) A fluorescence-based assay for multisubunit DNA-dependent RNA polymerases. Anal. Biochem. 324, 183-190]. […]
Exercise: state measured pIC50 for each of the compounds provided.
Numbers only, as −log10 of the molar value.

The following compounds each have a reported value; give each one's pIC50.
1. [2H]C([2H])([2H])OC(=O)N/C=C/CCCc1cc([O-])c(C(=O)/C(C)=C/c2cnc(Oc3ccc(F)cc3)s2)c(=O)o1.[Na+] [Example 9]
2. [2H]C([2H])([2H])OC(=O)N/C=C/CCCc1cc([O-])c(C(=O)/C(C)=C/c2cnc(Oc3ccc(F)c(Cl)c3)s2)c(=O)o1.[Na+] [Example 12]
3. [2H]C([2H])([2H])OC(=O)N/C=C/CCCc1cc(O)c(C(=O)/C(C)=C/c2cnc(Oc3ccc(F)c(Cl)c3)s2)c(=O)o1 [Example 11]
4. [2H]C([2H])([2H])OC(=O)N/C=C/CCCc1cc(O)c(C(=O)/C(C)=C/c2cnc(Oc3ccc(F)cc3)s2)c(=O)o1 [Example 8]

# output
1. 7.52
2. 7.52
3. 7.52
4. 7.70
